For each of the compounds below, state its inhibition at 10 µM.
Target: 5-lipoxygenase (Bos taurus, UniProt F1MQ78)
Construct: The source for 5-lipoxygenase were bovine granulocytes; endogenous in cells; host or cells: granulocytes isolated from EDTA-anticoagulated bovine blood
Sequence (F1MQ78 1-674): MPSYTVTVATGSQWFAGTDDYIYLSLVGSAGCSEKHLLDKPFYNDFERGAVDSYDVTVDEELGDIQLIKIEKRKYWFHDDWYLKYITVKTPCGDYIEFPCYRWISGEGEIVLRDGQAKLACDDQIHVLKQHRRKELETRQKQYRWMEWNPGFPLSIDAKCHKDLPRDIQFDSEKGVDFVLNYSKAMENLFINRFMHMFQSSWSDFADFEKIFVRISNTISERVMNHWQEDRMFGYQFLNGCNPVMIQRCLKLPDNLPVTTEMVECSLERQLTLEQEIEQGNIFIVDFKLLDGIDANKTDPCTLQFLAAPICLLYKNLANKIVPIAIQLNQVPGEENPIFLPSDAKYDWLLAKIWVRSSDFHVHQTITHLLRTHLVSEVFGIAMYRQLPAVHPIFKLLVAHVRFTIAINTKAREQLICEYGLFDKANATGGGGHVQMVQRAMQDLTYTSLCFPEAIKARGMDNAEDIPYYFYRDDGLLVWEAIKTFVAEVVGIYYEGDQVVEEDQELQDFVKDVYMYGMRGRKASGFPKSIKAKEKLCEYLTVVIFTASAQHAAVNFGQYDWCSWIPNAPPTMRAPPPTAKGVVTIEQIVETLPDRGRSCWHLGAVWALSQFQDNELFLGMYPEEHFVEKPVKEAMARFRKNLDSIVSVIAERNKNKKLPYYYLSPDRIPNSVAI
Assay: inhibition of 5-lipoxygenase (LTB4 formed by calcium-ionophore stimulated bovine granulocytes)
Type: cell-based
Conditions: Table 2
Description: The effectiveness of the compounds of the invention can be determined by means of the inhibition of 5-lipoxygenase or of cyclo-oxygenase. The research was carried out as follows: The source for 5-lipoxygenase were bovine granulocytes which can form leucotrienes just as human granulocytes do. […] LTB4 is measured at the absorption maximum at 270 nm. The arachidonic acid metabolites are observed present in this research in approximately quantitative manner. […]
Answers are plain numbers, in %.

The cases that follow already have their inhibition at 10 µM on record.
Ask: Given `CCCCn1c(C)c(-c2ccccc2)c(-c2ccccc2)c1CCC(=O)O` , state its recorded inhibition at 10 µM.
Result: 94

Ask: Given `CCCCCn1c(C)c(-c2ccccc2)c(-c2ccccc2)c1CCC(=O)O` , state its recorded inhibition at 10 µM.
Result: 99

Ask: Given `CCCCCCn1c(C)c(-c2ccccc2)c(-c2ccccc2)c1CCC(=O)O` , state its recorded inhibition at 10 µM.
Result: 99

Continuing:
Ask: Given `Cc1c(-c2ccccc2)c(-c2ccccc2)c(CCC(=O)O)n1CC(C)(C)C` , state its recorded inhibition at 10 µM.
Result: 97
